Entries and their measured pKd follow.
- PROTOCOL_TEXT: Binding constant at vancomycin was measured using affinity capillary electrophoresis-MS.
pKd: −log10 of the molar value. Square brackets hold non-standard residues; d marks the D form. Peptide text beside a SMILES is read from it. * marks the point of attachment. ξ: configuration not given here. Fmoc = O=C(OCC1c2ccccc2-c2ccccc21)*; ξV = CC(C)C(N)C(=O)O

[
  {
    "MOLECULE": "C[C@H](NC(=O)[C@H](Cc1ccc(O)cc1)NC(=O)[C@H](CCCN=C(N)N)NC(=O)[C@H](CC(=O)O)NC(=O)OCC1c2ccccc2-c2ccccc21)C(=O)O (Fmoc-DRYA-OH)",
    "pKd": 4.96
  },
  {
    "MOLECULE": "CC(C)C(NC(=O)[C@H](CC(=O)O)NC(=O)OCC1c2ccccc2-c2ccccc21)C(=O)N[C@@H](Cc1ccc(O)cc1)C(=O)N[C@@H](C)C(=O)O (stereo partly specified) (Fmoc-D[ξV]YA-OH)",
    "pKd": 5.00
  },
  {
    "MOLECULE": "C[C@H](NC(=O)[C@H](Cc1ccc(O)cc1)NC(=O)[C@H](CO)NC(=O)[C@H](CC(=O)O)NC(=O)OCC1c2ccccc2-c2ccccc21)C(=O)O (Fmoc-DSYA-OH)",
    "pKd": 4.85
  },
  {
    "MOLECULE": "C[C@H](NC(=O)[C@H](Cc1ccc(O)cc1)NC(=O)[C@H](CC(=O)O)NC(=O)[C@H](CC(=O)O)NC(=O)OCC1c2ccccc2-c2ccccc21)C(=O)O (Fmoc-DDYA-OH)",
    "pKd": 5.18
  },
  {
    "MOLECULE": "C[C@H](NC(=O)[C@H](Cc1ccc(O)cc1)NC(=O)[C@@H]1CCCN1C(=O)[C@H](CC(=O)O)NC(=O)OCC1c2ccccc2-c2ccccc21)C(=O)O (Fmoc-DPYA-OH)",
    "pKd": 4.80
  },
  {
    "MOLECULE": "C[C@H](NC(=O)[C@H](Cc1ccc(O)cc1)NC(=O)[C@H](CCC(=O)O)NC(=O)[C@H](CC(=O)O)NC(=O)OCC1c2ccccc2-c2ccccc21)C(=O)O (Fmoc-DEYA-OH)",
    "pKd": 5.07
  },
  {
    "MOLECULE": "CC(C)C[C@H](NC(=O)[C@H](CC(=O)O)NC(=O)OCC1c2ccccc2-c2ccccc21)C(=O)N[C@@H](Cc1ccc(O)cc1)C(=O)N[C@@H](C)C(=O)O (Fmoc-DLYA-OH)",
    "pKd": 5.29
  },
  {
    "MOLECULE": "C[C@H](NC(=O)[C@H](Cc1ccc(O)cc1)NC(=O)[C@H](CCC(N)=O)NC(=O)[C@H](CC(=O)O)NC(=O)OCC1c2ccccc2-c2ccccc21)C(=O)O (Fmoc-DQYA-OH)",
    "pKd": 4.82
  },
  {
    "MOLECULE": "C[C@H](NC(=O)[C@H](Cc1ccc(O)cc1)NC(=O)[C@H](CC(N)=O)NC(=O)[C@H](CC(=O)O)NC(=O)OCC1c2ccccc2-c2ccccc21)C(=O)O (Fmoc-DNYA-OH)",
    "pKd": 4.92
  },
  {
    "MOLECULE": "C[C@H](NC(=O)[C@H](Cc1ccc(O)cc1)NC(=O)[C@@H](NC(=O)[C@H](CC(=O)O)NC(=O)OCC1c2ccccc2-c2ccccc21)[C@H](C)O)C(=O)O",
    "pKd": 4.62
  },
  {
    "MOLECULE": "C[C@H](NC(=O)[C@H](Cc1ccc(O)cc1)NC(=O)[C@H](Cc1c[nH]c2ccccc12)NC(=O)[C@H](CC(=O)O)NC(=O)OCC1c2ccccc2-c2ccccc21)C(=O)O (Fmoc-DWYA-OH)",
    "pKd": 4.92
  }
]

---

- PROTOCOL_TEXT: Binding constant at vancomycin was measured using affinity capillary electrophoresis-UV.
pKd: −log10 of the molar value. Square brackets hold non-standard residues; d marks the D form. Peptide text beside a SMILES is read from it. * marks the point of attachment. ξ: configuration not given here. Fmoc = O=C(OCC1c2ccccc2-c2ccccc21)*; ξV = CC(C)C(N)C(=O)O

[
  {
    "MOLECULE": "C[C@H](NC(=O)[C@H](Cc1ccc(O)cc1)NC(=O)[C@H](CC(=O)O)NC(=O)[C@H](CC(=O)O)NC(=O)OCC1c2ccccc2-c2ccccc21)C(=O)O (Fmoc-DDYA-OH)",
    "pKd": 5.14
  },
  {
    "MOLECULE": "CSCC[C@H](NC(=O)[C@H](CC(=O)O)NC(=O)OCC1c2ccccc2-c2ccccc21)C(=O)N[C@@H](Cc1ccc(O)cc1)C(=O)N[C@@H](C)C(=O)O (Fmoc-DMYA-OH)",
    "pKd": 5.15
  },
  {
    "MOLECULE": "C[C@H](NC(=O)[C@H](Cc1ccc(O)cc1)NC(=O)[C@@H](NC(=O)[C@H](CC(=O)O)NC(=O)OCC1c2ccccc2-c2ccccc21)[C@H](C)O)C(=O)O",
    "pKd": 4.68
  },
  {
    "MOLECULE": "C[C@H](NC(=O)[C@H](Cc1ccc(O)cc1)NC(=O)[C@H](C)NC(=O)[C@H](CC(=O)O)NC(=O)OCC1c2ccccc2-c2ccccc21)C(=O)O (Fmoc-DAYA-OH)",
    "pKd": 5.14
  },
  {
    "MOLECULE": "CC(C)C(NC(=O)[C@H](CC(=O)O)NC(=O)OCC1c2ccccc2-c2ccccc21)C(=O)N[C@@H](Cc1ccc(O)cc1)C(=O)N[C@@H](C)C(=O)O (some centres undefined) (Fmoc-D[ξV]YA-OH)",
    "pKd": 4.92
  },
  {
    "MOLECULE": "C[C@H](NC(=O)[C@H](Cc1ccc(O)cc1)NC(=O)[C@H](CCCCN)NC(=O)[C@H](CC(=O)O)NC(=O)OCC1c2ccccc2-c2ccccc21)C(=O)O (Fmoc-DKYA-OH)",
    "pKd": 4.89
  },
  {
    "MOLECULE": "CC[C@@H](C)[C@H](NC(=O)[C@H](CC(=O)O)NC(=O)OCC1c2ccccc2-c2ccccc21)C(=O)N[C@@H](Cc1ccc(O)cc1)C(=O)N[C@@H](C)C(=O)O",
    "pKd": 4.72
  },
  {
    "MOLECULE": "C[C@H](NC(=O)[C@H](Cc1ccc(O)cc1)NC(=O)[C@H](Cc1c[nH]c2ccccc12)NC(=O)[C@H](CC(=O)O)NC(=O)OCC1c2ccccc2-c2ccccc21)C(=O)O (Fmoc-DWYA-OH)",
    "pKd": 4.85
  },
  {
    "MOLECULE": "C[C@H](NC(=O)[C@H](Cc1ccc(O)cc1)NC(=O)[C@H](CC(N)=O)NC(=O)[C@H](CC(=O)O)NC(=O)OCC1c2ccccc2-c2ccccc21)C(=O)O (Fmoc-DNYA-OH)",
    "pKd": 4.96
  },
  {
    "MOLECULE": "C[C@H](NC(=O)[C@H](Cc1ccc(O)cc1)NC(=O)[C@H](CCC(=O)O)NC(=O)[C@H](CC(=O)O)NC(=O)OCC1c2ccccc2-c2ccccc21)C(=O)O (Fmoc-DEYA-OH)",
    "pKd": 5.00
  },
  {
    "MOLECULE": "C[C@H](NC(=O)[C@H](Cc1ccc(O)cc1)NC(=O)[C@H](CO)NC(=O)[C@H](CC(=O)O)NC(=O)OCC1c2ccccc2-c2ccccc21)C(=O)O (Fmoc-DSYA-OH)",
    "pKd": 4.89
  },
  {
    "MOLECULE": "C[C@H](NC(=O)[C@H](Cc1ccc(O)cc1)NC(=O)[C@H](Cc1ccccc1)NC(=O)[C@H](CC(=O)O)NC(=O)OCC1c2ccccc2-c2ccccc21)C(=O)O (Fmoc-DFYA-OH)",
    "pKd": 5.02
  },
  {
    "MOLECULE": "C[C@H](NC(=O)[C@H](Cc1ccc(O)cc1)NC(=O)CNC(=O)[C@H](CC(=O)O)NC(=O)OCC1c2ccccc2-c2ccccc21)C(=O)O (Fmoc-DGYA-OH)",
    "pKd": 4.74
  },
  {
    "MOLECULE": "C[C@H](NC(=O)[C@H](Cc1ccc(O)cc1)NC(=O)[C@H](Cc1c[nH]cn1)NC(=O)[C@H](CC(=O)O)NC(=O)OCC1c2ccccc2-c2ccccc21)C(=O)O (Fmoc-DHYA-OH)",
    "pKd": 5.15
  },
  {
    "MOLECULE": "C[C@H](NC(=O)[C@H](Cc1ccc(O)cc1)NC(=O)[C@H](CCCN=C(N)N)NC(=O)[C@H](CC(=O)O)NC(=O)OCC1c2ccccc2-c2ccccc21)C(=O)O (Fmoc-DRYA-OH)",
    "pKd": 4.89
  },
  {
    "MOLECULE": "CC(C)C[C@H](NC(=O)[C@H](CC(=O)O)NC(=O)OCC1c2ccccc2-c2ccccc21)C(=O)N[C@@H](Cc1ccc(O)cc1)C(=O)N[C@@H](C)C(=O)O (Fmoc-DLYA-OH)",
    "pKd": 5.25
  },
  {
    "MOLECULE": "C[C@H](NC(=O)[C@H](Cc1ccc(O)cc1)NC(=O)[C@@H]1CCCN1C(=O)[C@H](CC(=O)O)NC(=O)OCC1c2ccccc2-c2ccccc21)C(=O)O (Fmoc-DPYA-OH)",
    "pKd": 4.85
  },
  {
    "MOLECULE": "C[C@H](NC(=O)[C@H](Cc1ccc(O)cc1)NC(=O)[C@H](Cc1ccc(O)cc1)NC(=O)[C@H](CC(=O)O)NC(=O)OCC1c2ccccc2-c2ccccc21)C(=O)O (Fmoc-DYYA-OH)",
    "pKd": 5.17
  },
  {
    "MOLECULE": "C[C@H](NC(=O)[C@H](Cc1ccc(O)cc1)NC(=O)[C@H](CCC(N)=O)NC(=O)[C@H](CC(=O)O)NC(=O)OCC1c2ccccc2-c2ccccc21)C(=O)O (Fmoc-DQYA-OH)",
    "pKd": 4.85
  }
]

Hey, just so you know, these numbers are from ChEMBL document CHEMBL1131322.
